target: TDP-43 (Homo sapiens, UniProt Q13148 1-414); test: RNA Bind-n-Seq with designed 260-mer pool; 25 mM Tris-HCl, 150 mM KCl, 3 mM MgCl2, BSA (printed 500 mg/mL), 20 units/mL SUPERase IN; pH not stated; 500 nM RNA pool, 1 h, 4 C; TDP-43 5, 50, 500 nM; high values mean tight binding; details: protein: recombinant; tags: SBP (GST cleaved off with PreScission; pGEX-GST-SBP)
Sequence (Q13148 whole entry): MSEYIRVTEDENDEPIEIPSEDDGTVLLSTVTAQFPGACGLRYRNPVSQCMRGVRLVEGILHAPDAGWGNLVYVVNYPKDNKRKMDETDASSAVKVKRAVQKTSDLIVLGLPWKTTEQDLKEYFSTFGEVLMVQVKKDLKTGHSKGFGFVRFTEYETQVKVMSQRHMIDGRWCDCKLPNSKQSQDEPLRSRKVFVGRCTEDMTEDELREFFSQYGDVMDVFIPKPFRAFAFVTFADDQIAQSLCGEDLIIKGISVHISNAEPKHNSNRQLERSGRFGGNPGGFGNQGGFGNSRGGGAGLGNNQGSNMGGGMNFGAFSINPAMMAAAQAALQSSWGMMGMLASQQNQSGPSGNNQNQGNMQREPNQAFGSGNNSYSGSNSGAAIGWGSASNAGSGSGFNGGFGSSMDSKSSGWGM
The full ranking holds about 9,900 sequences; the median of “r (bound/input frequency ratio)” is about 0.7, and the highest 2% start at about 6.5. Many of the other results were omitted from the sample, so the highest values are more common in it than they were.
measuredEndpoint: binding signal

For orientation, consider the following solved cases.
{"binder": "ENSMUSG00000042529.420|Kcnj12|1:11;16:21;25:29;41:51;74:79;236:240 (ssRNA) RNA: GGGAGUUCUACAGUCCGACGAUCGCUUCGAUAUCCGCAUGCUACACACACACACAACAACACACAGGCACACGAGGUCCCAGGCACACACAUACUGAAUGUCAGUGGCUUGGGUGCACACACGAGAGAGAGAGAGAGAGAGAGAGAGAGAGAGAGAGAGAGAGAGAGAGAGAGCUGCACAGGAUGAAGCAGCUGCCCUGAGCCCAUCUGGUGCUGUGCACCUGGUCCUUGUCCAGCCGAGGGCCUGGGGGCAGAAGAACACACCAUAGGGAGGCCCUUCAUACGGUGUCUGCCCUAUGUGAGGCUCUUGCGGUCGCACUAGUGUGGAAUUCUCGGGUGUCAAGG", "binding signal": "4.97 R (bound/input frequency ratio)"}
{"binder": "ENSMUSG00000042529.421|Kcnj12|1:5;10:15;19:23;35:45;68:73;230:234 (ssRNA) RNA: GGGAGUUCUACAGUCCGACGAUCGCUUCGAUAUCCGCAUGCUACACACAACAACACACAGGCACACGAGGUCCCAGGCACACACAUACUGAAUGUCAGUGGCUUGGGUGCACACACGAGAGAGAGAGAGAGAGAGAGAGAGAGAGAGAGAGAGAGAGAGAGAGAGAGCUGCACAGGAUGAAGCAGCUGCCCUGAGCCCAUCUGGUGCUGUGCACCUGGUCCUUGUCCAGCCGAGGGCCUGGGGGCAGAAGAACACACCAUAGGGAGGCCCUUCAUACGGUGUCUGCCCUAUGUGAGGUCAUAGCUCUUGCGGUCGCACUAGUGUGGAAUUCUCGGGUGUCAAGG", "binding signal": "7.21 R (bound/input frequency ratio)"}
{"binder": "ENSMUSG00000061578.1222|Ksr2|31:35;225:229 (ssRNA) RNA: GGGAGUUCUACAGUCCGACGAUCGCUUCGAUAUCCGCAUGCUAGAAUGAGCCGCUGGGAUAUUGACAUGGAGAACACAUGAUGGAAAAAGCCUCCACACCCAACAUAACUCUCCAGAGAGAUAUUGAAAGUGAUGGGCAGAGAGUCUGACAAUGACCCAGGGGUCAUUGUGAGUCCUAGGCUGAAUCUGUAAUGGGGUCCAAAGUGCAGGAGAGACUGCAUUCACCUUGUUGGUGGGGUGGGGCUUCUUUCAUUACUUUAAGUAUCUCAUACGGCUUGAGGCAUGGGAAACAGCACCUUGUCUCUCUUGCGGUCGCACUAGUGUGGAAUUCUCGGGUGUCAAGG", "binding signal": "0.49 R (bound/input frequency ratio)"}
{"binder": "ENSMUSG00000058297.239|Spock2 (ssRNA) RNA: GGGAGUUCUACAGUCCGACGAUCGCUUCGAUAUCCGCAUGCUAGAACGGUGUAUCUAUCAGAGGGGACCACACUGAGCAGCUAGGCCCUGAUGCCAUGCCUCAGCACGCCCUCAGACCUCCAGGCCGGGUGGAAGGGGCUUUUACCCAGAUGUCCUGUGGGGUUUUGUGUGUCUAUUGCUCCCCACUUCCCCCUCUCAAAGGAAAUUUCCUUGAUAUAUUUGAUGAAGAAUUCCUUACCUGGGCCUCUGAUACCCUUUGGUACGCGUACGUGUGUGUGGCGCGUAUACGUGUGUGUGUGUGUGCUCUUGCGGUCGCACUAGUGUGGAAUUCUCGGGUGUCAAGG", "binding signal": "3.69 R (bound/input frequency ratio)"}
{"binder": "ENSMUSG00000058297.246|Spock2 (ssRNA) RNA: GGGAGUUCUACAGUCCGACGAUCGCUUCGAUAUCCGCAUGCUACCCUGAUGCCAUGCCUCAGCACGCCCUCAGACCUCCAGGCCGGGUGGAAGGGGCUUUUACCCAGAUGUCCUGUGGGGUUUUGUGUGUCUAUUGCUCCCCACUUCCCCCUCUCAAAGGAAAUUUCCUUGAUAUAUUUGAUGAAGAAUUCCUUACCUGGGCCUCUGAUACCCUUUGGUACGCGUACGUGUGUGUGGCGCGUAUACGUGUGUGUGUGUGUGUGUGUGUGUGUGUGUGUGUGUGUGUGUGAGAGAGAGAGAGAGCUCUUGCGGUCGCACUAGUGUGGAAUUCUCGGGUGUCAAGG", "binding signal": "2.94 R (bound/input frequency ratio)"}
{"binder": "ENSMUSG00000058297.245|Spock2 (ssRNA) RNA: GGGAGUUCUACAGUCCGACGAUCGCUUCGAUAUCCGCAUGCUAGCUAGGCCCUGAUGCCAUGCCUCAGCACGCCCUCAGACCUCCAGGCCGGGUGGAAGGGGCUUUUACCCAGAUGUCCUGUGGGGUUUUGUGUGUCUAUUGCUCCCCACUUCCCCCUCUCAAAGGAAAUUUCCUUGAUAUAUUUGAUGAAGAAUUCCUUACCUGGGCCUCUGAUACCCUUUGGUACGCGUACGUGUGUGUGGCGCGUAUACGUGUGUGUGUGUGUGUGUGUGUGUGUGUGUGUGUGUGUGUGUGAGAGAGAGCUCUUGCGGUCGCACUAGUGUGGAAUUCUCGGGUGUCAAGG", "binding signal": "9.24 R (bound/input frequency ratio)"}

Continue with the binder presented below.
# binding signal of ENSMUSG00000042529.427|Kcnj12|1:9;32:37;194:198 (ssRNA) RNA: GGGAGUUCUACAGUCCGACGAUCGCUUCGAUAUCCGCAUGCUACACACAUACUGAAUGUCAGUGGCUUGGGUGCACACACGAGAGAGAGAGAGAGAGAGAGAGAGAGAGAGAGAGAGAGAGAGAGAGAGAGCUGCACAGGAUGAAGCAGCUGCCCUGAGCCCAUCUGGUGCUGUGCACCUGGUCCUUGUCCAGCCGAGGGCCUGGGGGCAGAAGAACACACCAUAGGGAGGCCCUUCAUACGGUGUCUGCCCUAUGUGAGGUCAUAGAAUGUUAAAUCUAUUUUAAACGGUGAAACUGGAGAACUCUUGCGGUCGCACUAGUGUGGAAUUCUCGGGUGUCAAGG = 5.49 R (bound/input frequency ratio)
